Origin of the recorded values: patent US20260234276A1

# reported MFI fold change to isotype ctrl; entries follow
Target: T1, human CCR8 (human, UniProt P51685 1-355)
T1 construct: the cells are named under assay; also called hCCR8
Assay: flow cytometry, hCCR8 transfected CHOK1 cells
Answer format: numeric, fold implied, no suffix.

Illustrative cases are given below, each with its answer.
- binder: "3-48 (antibody, V domains shown) VH: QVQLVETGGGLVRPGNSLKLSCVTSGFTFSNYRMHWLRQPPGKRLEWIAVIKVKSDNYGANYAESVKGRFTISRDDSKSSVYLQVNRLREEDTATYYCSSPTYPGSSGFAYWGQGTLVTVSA VL: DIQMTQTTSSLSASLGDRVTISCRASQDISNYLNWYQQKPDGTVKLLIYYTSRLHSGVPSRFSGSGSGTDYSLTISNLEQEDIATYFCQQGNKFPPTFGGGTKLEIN"
  MFI fold change to isotype ctrl / fold: 17.6
- binder: "3-46 (antibody, V domains shown) VH: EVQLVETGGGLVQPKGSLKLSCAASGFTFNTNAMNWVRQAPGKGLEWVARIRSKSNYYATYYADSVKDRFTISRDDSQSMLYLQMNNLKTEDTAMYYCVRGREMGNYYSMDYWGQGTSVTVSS VL: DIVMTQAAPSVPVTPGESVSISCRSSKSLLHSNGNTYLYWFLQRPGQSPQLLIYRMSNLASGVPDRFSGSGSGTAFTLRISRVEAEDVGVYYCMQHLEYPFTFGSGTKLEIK"
  MFI fold change to isotype ctrl / fold: 5.63

Field: next binder
### Prompt Indicate the recorded MFI fold change to isotype ctrl value for this binder: 3-33 (antibody, V domains shown) VH: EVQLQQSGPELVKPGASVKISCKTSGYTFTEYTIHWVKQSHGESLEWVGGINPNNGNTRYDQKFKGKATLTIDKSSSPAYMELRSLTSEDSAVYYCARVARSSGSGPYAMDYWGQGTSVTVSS VL: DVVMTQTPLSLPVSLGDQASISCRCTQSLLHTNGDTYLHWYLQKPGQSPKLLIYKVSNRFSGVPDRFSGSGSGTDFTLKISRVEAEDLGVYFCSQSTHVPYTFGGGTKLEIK
### Response 4.78
